Hey, just so you know, these numbers are from patent US10981911B2.

Examples of compounds with documented IC50 follow.
study_system: JAK3-JH1JH2 (Homo sapiens (Human))
Sequence (P52333 512-1124): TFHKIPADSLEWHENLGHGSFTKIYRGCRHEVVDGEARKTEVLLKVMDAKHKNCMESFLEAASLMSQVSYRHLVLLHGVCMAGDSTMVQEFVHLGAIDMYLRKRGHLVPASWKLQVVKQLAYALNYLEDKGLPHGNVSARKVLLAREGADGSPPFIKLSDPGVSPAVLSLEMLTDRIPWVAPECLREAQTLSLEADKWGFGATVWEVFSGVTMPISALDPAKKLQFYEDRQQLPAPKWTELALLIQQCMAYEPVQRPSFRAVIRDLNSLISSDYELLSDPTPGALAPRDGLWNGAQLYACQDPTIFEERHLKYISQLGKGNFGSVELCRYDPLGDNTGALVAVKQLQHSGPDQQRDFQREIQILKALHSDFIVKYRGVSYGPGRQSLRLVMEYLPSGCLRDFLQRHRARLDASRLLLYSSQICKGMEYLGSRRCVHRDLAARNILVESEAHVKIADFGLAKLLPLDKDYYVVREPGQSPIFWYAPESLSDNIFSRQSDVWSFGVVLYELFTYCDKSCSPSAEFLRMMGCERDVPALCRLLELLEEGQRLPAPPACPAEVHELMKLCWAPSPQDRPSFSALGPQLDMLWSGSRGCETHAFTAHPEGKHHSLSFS
Don't forget the unit after the value.

Please review the following examples before continuing.
CC(C)NC(=O)NCc1nc2cnc3[nH]ccc3c2n1[C@H]1CC[C@H](CC#N)CC1; 0.211 µM
N#CC[C@H]1CC[C@H](n2c(COC(=O)NC34CC5CC(CC(C5)C3)C4)nc3cnc4[nH]ccc4c32)CC1; 0.659 µM
COCC(C)NC(=O)c1nc2cnc3[nH]ccc3c2n1[C@H]1CC[C@H](CC#N)CC1 (stereo partly shown); 0.641 µM
N#CC[C@H]1CC[C@H](n2c(-c3nn[nH]n3)nc3cnc4[nH]ccc4c32)CC1; 0.0573 µM
COCC/C(=N/O)NCc1nc2cnc3[nH]ccc3c2n1[C@H]1CC[C@H](CC#N)CC1; 0.622 µM
N#CC[C@H]1CC[C@H](n2c(CC(=O)Nc3ccc(CO)cc3)nc3cnc4[nH]ccc4c32)CC1; 0.0133 µM
N#CC[C@H]1CC[C@H](n2c(CC(=O)N[C@H]3C[C@H](O)C3)nc3cnc4[nH]ccc4c32)CC1; 0.0388 µM
N#CC[C@H]1CC[C@H](n2c(C(=O)N3CCC(O)CC3)nc3cnc4[nH]ccc4c32)CC1; 6.3 µM
N#CCC12CCC(NC(=O)Cc3nc4cnc5[nH]ccc5c4n3[C@H]3CC[C@H](CC#N)CC3)(CC1)C2; 0.0596 µM
N#CC[C@H]1CC[C@H](n2c(CC(=O)NCC3CCCCC3)nc3cnc4[nH]ccc4c32)CC1; 0.111 µM

Request: What value of IC50 on JAK3-JH1JH2 (Homo sapiens (Human)) does N#CC[C@H]1CC[C@H](n2c(CN/C(CC3CCCCC3)=N/O)nc3cnc4[nH]ccc4c32)CC1 have?
Response: 0.0187 µM

Request: What value of IC50 on JAK3-JH1JH2 (Homo sapiens (Human)) does N#CC[C@H]1CC[C@H](n2c(CO/N=C(\N)c3ccccc3)nc3cnc4[nH]ccc4c32)CC1 have?
Response: 0.141 µM

Request: What value of IC50 on JAK3-JH1JH2 (Homo sapiens (Human)) does N#CC[C@H]1CC[C@H](n2c(CC(=O)N3CCC(F)(F)CC3)nc3cnc4[nH]ccc4c32)CC1 have?
Response: 0.142 µM

Request: What value of IC50 on JAK3-JH1JH2 (Homo sapiens (Human)) does CSc1nccc(-c2nc3cnc4[nH]ccc4c3n2[C@H]2CC[C@H](CC#N)CC2)n1 have?
Response: 0.117 µM

Request: What value of IC50 on JAK3-JH1JH2 (Homo sapiens (Human)) does C#Cc1ccc(C(=O)c2ccc(OCc3nc4cnc5[nH]ccc5c4n3[C@H]3CC[C@H](CC#N)CC3)cc2)cc1 have?
Response: 0.13 µM

Request: What value of IC50 on JAK3-JH1JH2 (Homo sapiens (Human)) does N#CC[C@H]1CC[C@H](n2c(Cc3ccn[nH]3)nc3cnc4[nH]ccc4c32)CC1 have?
Response: 0.0779 µM
